System: MS2 coat protein
assay_notes: apparent Kd, MS2 coat protein; higher = weaker binding; RNA-MaP array; theophylline 2 mM where present
applied_conditions: designed as: ON switch for theophylline; no ligand
Catalogue of sequences with associated apparent Kd
I only need the number, in nM, no unit after it.

// known answers, use as guide
UUUGAUAGGACAGAUACCAGCGUGUUGUUGAACAUGAGGAUCACCCAUGUAGUGAUCGAGCGCCCUUGGCAGCUGGUUUGUUAGG	382
GCACCAGGUACGGAUACCAGCUGCCCGAGAUACAUGAGGAUCACCCAUGUGACCUGGUUUAGCCCUUGGCAGCUGUACCUGGUGC	13.6
UUUACAUGAGGAUCACCCAUGUGCCAUGAUACCAGACAUGAAAAUGUCCCUUGGCAGCAUGAAGGUACCUCAUCGGGAAACCGAA	134
UUUACAUGAGGAUCACCCAUGUGCCAUGAUACCAGACAUGAAAAUGUCCCUUGGCAGCAUGAGUGAUUCAUCCGAAAGGAUGUUU	121

Task: Supply reported apparent Kd belonging to this sequence: `ACAUGAGGAUCACCCAUGUCUGCCACUGAUACCAGCGGAAGCCAACGCCCUUGGCAGCAGAACAUGAGGAUCACCCAUGUAGGCA`
Output: 308

Task: Supply reported apparent Kd belonging to this sequence: `AAUCUGUCGGGUGAUACCAGCCUCGGCGCAUCUCGCACCGAACAUGAGGAUCACCCAUGUGGCCCUUGGCAGCACAUGACAAAUC`
Output: 371

Task: Supply reported apparent Kd belonging to this sequence: `UAUACAUGAGGAUCACCCAUGUGCCAUGAUACCAGACAUGAAAAUGUCCCUUGGCAGCAUGGGAAAUGUAUAGCGGGAAACCCGA`
Output: 72.6

Task: Supply reported apparent Kd belonging to this sequence: `AGUAAUCUAAGAGAUACCAGACGGUAUAUAACAUGAGGAUCACCCAUGUUUUGGGUGUACGUCCCUUGGCAGCUCAAAAUGAUAA`
Output: 230

Task: Supply reported apparent Kd belonging to this sequence: `CAUGGGUGGUAUCACCCAUCCAUAGGUGAUACCAGCAUCGAAAGAUGCCCUUGGCAGCACCAACAUGAGGAUCACCCAUGUAAUA`
Output: 264

Task: Supply reported apparent Kd belonging to this sequence: `AUGCAGGGCAACAGCCACUGUCACGGUGAUACCAGUACCCGUGCGUACCCUUGGCAGCAUCGUGGUACAUGAGGAUCACCCAUGU`
Output: 271
